assay: Solubility test of amorphous substance (room temperature); format: physicochemical; conditions: organic solvent or mixture, thermodynamic from solid, Ethyl acetate, read-out: Roughly measured solubility
QUANTITY MEASURED: solubility

Q. Which solubility value is on record for `CC(C)C(=O)O[C@@H](C)OC(=O)NC(C)(C)C(=O)N[C@H](COCc1ccccc1)C(=O)N1CCC2(CC1)CN(S(C)(=O)=O)c1ccccc12` ?
A. > 600 mg/mL

====

Assay: Solubility test of amorphous substance (room temperature)
Format: physicochemical
Settings: organic solvent or mixture, thermodynamic from solid, Dichloromethane, read-out: Roughly measured solubility
Procedure: About 10 mg of amorphous substance was weighted and placed into an 8 mL glass bottle, and a solvent was gradually added at room temperature. 5 μL of solvent was added each time until all the solids were dissolved, and if 8 mL of solvent was added and the solids were not dissolved, the solvent addition was stopped. Table 1. Test results of solubility of amorphous substance of compound represented by Formula (1) (room temperature)
QUANTITY MEASURED: solubility

Q. Which solubility value is on record for `CC(C)C(=O)O[C@@H](C)OC(=O)NC(C)(C)C(=O)N[C@H](COCc1ccccc1)C(=O)N1CCC2(CC1)CN(S(C)(=O)=O)c1ccccc12` ?
A. > 798 mg/mL

====

assay: Solubility test of amorphous substance (room temperature); type: physicochemical; conditions: organic solvent or mixture, thermodynamic from solid, Methyl tert-butyl ether, read-out: Roughly measured solubility
QUANTITY MEASURED: solubility

Q. Which solubility value is on record for `CC(C)C(=O)O[C@@H](C)OC(=O)NC(C)(C)C(=O)N[C@H](COCc1ccccc1)C(=O)N1CCC2(CC1)CN(S(C)(=O)=O)c1ccccc12` ?
A. > 70 mg/mL

====

assay: Solubility test of amorphous substance (room temperature); format: physicochemical; conditions: organic solvent or mixture, thermodynamic from solid, Cyclohexane, read-out: Roughly measured solubility
QUANTITY MEASURED: solubility

Q. Which solubility value is on record for `CC(C)C(=O)O[C@@H](C)OC(=O)NC(C)(C)C(=O)N[C@H](COCc1ccccc1)C(=O)N1CCC2(CC1)CN(S(C)(=O)=O)c1ccccc12` ?
A. < 1200 µg/mL

====

assay: Solubility test of amorphous substance (room temperature); type: physicochemical; conditions: organic solvent or mixture, thermodynamic from solid, Acetone, read-out: Roughly measured solubility
QUANTITY MEASURED: solubility

Q. Which solubility value is on record for `CC(C)C(=O)O[C@@H](C)OC(=O)NC(C)(C)C(=O)N[C@H](COCc1ccccc1)C(=O)N1CCC2(CC1)CN(S(C)(=O)=O)c1ccccc12` ?
A. > 520 mg/mL

====

assay: in vitro; conditions: human, Caco-2, pH 7.4
QUANTITY MEASURED: Papp A→B at 2 h, 2 μM (×10⁻⁶ cm/s)
The response must be a number in ×10⁻⁶ cm/s with no trailing unit.

Q. Which Papp A→B at 2 h, 2 μM value is on record for CC(OC(=O)NC(C)(C)C(=O)N[C@H](COCc1ccccc1)C(=O)N1CCC2(CC1)CN(S(C)(=O)=O)c1ccccc12)OC(=O)C(C)C (stereo partly shown) ?
A. 0.0518

====

assay: Solubility test of amorphous substance (room temperature); format: physicochemical; details: organic solvent or mixture, thermodynamic from solid, N-heptane, read-out: Roughly measured solubility
QUANTITY MEASURED: solubility

Q. Which solubility value is on record for CC(C)C(=O)O[C@@H](C)OC(=O)NC(C)(C)C(=O)N[C@H](COCc1ccccc1)C(=O)N1CCC2(CC1)CN(S(C)(=O)=O)c1ccccc12 [amorphous substance] ?
A. < 1300 µg/mL

====

assay: Solubility test of crystal form (room temperature); format: physicochemical; settings: organic solvent or mixture, thermodynamic from solid, Ethanol
QUANTITY MEASURED: solubility

Q. Which solubility value is on record for CC(C)C(=O)O[C@@H](C)OC(=O)NC(C)(C)C(=O)N[C@H](COCc1ccccc1)C(=O)N1CCC2(CC1)CN(S(C)(=O)=O)c1ccccc12 [crystal form] ?
A. ~20.9 mg/mL

====

test: Solubility test of crystal form (room temperature); format: physicochemical; conditions: organic solvent or mixture, thermodynamic from solid, Dichloromethane
QUANTITY MEASURED: solubility

Q. Which solubility value is on record for CC(C)C(=O)O[C@@H](C)OC(=O)NC(C)(C)C(=O)N[C@H](COCc1ccccc1)C(=O)N1CCC2(CC1)CN(S(C)(=O)=O)c1ccccc12 [crystal form] ?
A. ~251 mg/mL

====

assay: Solubility test of amorphous substance (room temperature); assay type: physicochemical; details: organic solvent or mixture, thermodynamic from solid, Anisole, read-out: Roughly measured solubility
QUANTITY MEASURED: solubility

Q. Which solubility value is on record for `CC(C)C(=O)O[C@@H](C)OC(=O)NC(C)(C)C(=O)N[C@H](COCc1ccccc1)C(=O)N1CCC2(CC1)CN(S(C)(=O)=O)c1ccccc12` ?
A. > 510 mg/mL

====

Assay: in vitro
Conditions: human, Caco-2, pH 7.4
Description: A transport buffer solution in the study was HBSS containing 10.0 mM of HEPSS, and had pH of 7.40±0.05. The compound to be tested was subjected to bidirectional test at 2.00 μM, and the final concentration of DMSO was required to be less than 1%. In a CO2 incubator at 37±1° C., the cell plate was stood and incubated for 2 h under CO2 at 5% […] and saturated humidity. After mixing all samples with acetonitrile containing internal standard, the mixture was centrifuged at 3200×g for 10 min. […]
QUANTITY MEASURED: Papp B→A at 2 h, 2 μM (×10⁻⁶ cm/s)
The response must be a number in ×10⁻⁶ cm/s with no trailing unit.

Q. Which Papp B→A at 2 h, 2 μM value is on record for CC(OC(=O)NC(C)(C)C(=O)N[C@H](COCc1ccccc1)C(=O)N1CCC2(CC1)CN(S(C)(=O)=O)c1ccccc12)OC(=O)C(C)C (stereo partly shown) [Compound 1e] ?
A. 8.8

====

test: Solubility test of crystal form (room temperature); type: physicochemical; details: organic solvent or mixture, thermodynamic from solid, Acetone
QUANTITY MEASURED: solubility

Q. Which solubility value is on record for CC(C)C(=O)O[C@@H](C)OC(=O)NC(C)(C)C(=O)N[C@H](COCc1ccccc1)C(=O)N1CCC2(CC1)CN(S(C)(=O)=O)c1ccccc12 [crystal form] ?
A. ~117 mg/mL

====

experiment: Solubility test of amorphous substance (room temperature); type: physicochemical; conditions: thermodynamic from solid, Water, read-out: Roughly measured solubility
QUANTITY MEASURED: solubility

Q. Which solubility value is on record for `CC(C)C(=O)O[C@@H](C)OC(=O)NC(C)(C)C(=O)N[C@H](COCc1ccccc1)C(=O)N1CCC2(CC1)CN(S(C)(=O)=O)c1ccccc12` ?
A. < 1300 µg/mL

====

assay: Solubility test of amorphous substance (room temperature); type: physicochemical; conditions: organic solvent or mixture, thermodynamic from solid, Isopropanol, read-out: Roughly measured solubility
QUANTITY MEASURED: solubility

Q. Which solubility value is on record for `CC(C)C(=O)O[C@@H](C)OC(=O)NC(C)(C)C(=O)N[C@H](COCc1ccccc1)C(=O)N1CCC2(CC1)CN(S(C)(=O)=O)c1ccccc12` ?
A. > 432 mg/mL

====

assay: Solubility test of crystal form (room temperature); type: physicochemical; conditions: organic solvent or mixture, thermodynamic from solid, Acetonitrile
QUANTITY MEASURED: solubility

Q. Which solubility value is on record for CC(C)C(=O)O[C@@H](C)OC(=O)NC(C)(C)C(=O)N[C@H](COCc1ccccc1)C(=O)N1CCC2(CC1)CN(S(C)(=O)=O)c1ccccc12 [crystal form] ?
A. ~128 mg/mL

====

experiment: Solubility test of amorphous substance (room temperature); format: physicochemical; settings: organic solvent or mixture, thermodynamic from solid, N-propanol, read-out: Roughly measured solubility
QUANTITY MEASURED: solubility

Q. Which solubility value is on record for CC(C)C(=O)O[C@@H](C)OC(=O)NC(C)(C)C(=O)N[C@H](COCc1ccccc1)C(=O)N1CCC2(CC1)CN(S(C)(=O)=O)c1ccccc12 [amorphous substance] ?
A. > 460 mg/mL

====

experiment: Solubility test of amorphous substance (room temperature); format: physicochemical; settings: organic solvent or mixture, thermodynamic from solid, 1,4-Dioxane, read-out: Roughly measured solubility
QUANTITY MEASURED: solubility

Q. Which solubility value is on record for `CC(C)C(=O)O[C@@H](C)OC(=O)NC(C)(C)C(=O)N[C@H](COCc1ccccc1)C(=O)N1CCC2(CC1)CN(S(C)(=O)=O)c1ccccc12` ?
A. > 760 mg/mL

====

test: Solubility test of amorphous substance (room temperature); assay type: physicochemical; settings: organic solvent or mixture, thermodynamic from solid, Acetonitrile, read-out: Roughly measured solubility
QUANTITY MEASURED: solubility

Q. Which solubility value is on record for CC(C)C(=O)O[C@@H](C)OC(=O)NC(C)(C)C(=O)N[C@H](COCc1ccccc1)C(=O)N1CCC2(CC1)CN(S(C)(=O)=O)c1ccccc12 [amorphous substance] ?
A. > 587 mg/mL
